In this section we review reported growth values for a set of compounds.
System: HCC-2998 colon
Assay: NCI-60 one-dose screen, 48 h (100 = growth as untreated, 0 = no growth, -100 = all killed)
Details: 10 µM
Description: Growth inhibition of the HCC-2998 human tumor cell line is measured as a screen for anti-cancer activity. Cells are grown in 96 well plates and exposed to the test compound for 48 hours. Compounds are tested at a single concentration, which is 10^-5 M for most compounds. The reported endpoint is percent growth (GI% or GIPRCNT), where numbers from 0 - 100% represent growth inhibition, and numbers from -100% - 0 represent cell death. For example, a value of 40 represents 60% growth inhibition. […]
This is part of a sample that, as a whole, favours compounds with a hit. Of some 83,000 tested, about 20% had one in any assay. Activity calls are given as the source filed them. The calls were made as follows: active = growth percent below 10; inactive = the rest.

C#CCCCN(CCNc1ccnc2cc(Cl)ccc12)C(=O)CCC(=O)O[C@@H]1O[C@@H]2OC3(C)CC[C@H]4[C@H](C)CC[C@@H]([C@H]1C)[C@@]24OO3	20.7% (inactive)
CCOP(=O)(CC(F)(F)C(F)(F)F)OCC	86.3% (inactive)
CCOP(=O)(OCC)C(NC(C)=O)C(=O)SCCN (stereo not given)	104% (inactive)

Would you kindly look at the next entry?
Form: compound = `Cc1ccc2[nH]c(=S)n(-c3ccc(F)cc3)c(=O)c2c1` ; growth = 111% (inactive)
